Molecular target: MAO-A (Mus musculus, UniProt Q64133)
Construct: gene Maoa
Sequence (Q64133 1-526): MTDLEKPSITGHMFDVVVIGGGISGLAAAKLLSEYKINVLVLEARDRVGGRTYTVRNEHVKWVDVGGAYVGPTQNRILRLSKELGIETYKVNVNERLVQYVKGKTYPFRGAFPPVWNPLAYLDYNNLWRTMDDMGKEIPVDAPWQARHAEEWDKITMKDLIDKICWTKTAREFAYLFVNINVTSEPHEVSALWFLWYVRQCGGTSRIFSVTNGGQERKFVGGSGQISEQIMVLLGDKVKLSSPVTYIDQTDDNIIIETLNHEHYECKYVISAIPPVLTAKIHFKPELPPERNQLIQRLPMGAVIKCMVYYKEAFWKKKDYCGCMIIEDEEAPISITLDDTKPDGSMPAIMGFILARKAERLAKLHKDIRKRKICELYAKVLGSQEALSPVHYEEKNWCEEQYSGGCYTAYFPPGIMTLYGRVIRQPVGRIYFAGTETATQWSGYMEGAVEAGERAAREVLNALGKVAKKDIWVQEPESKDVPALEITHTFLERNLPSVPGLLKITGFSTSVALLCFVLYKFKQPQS
Test: fluorescent kynuramine MAO activity assay in crude mouse brain mitochondria
Type: biochemical
reported property: IC50 (nM)
Could you give me the number in nM? Just the number is fine.

query: Suppose we examine the molecule C#CCN(C)CCCOc1ccc(Cl)cc1Cl [clorgiline, reference compound] ; what IC50 value has been reported?
result: 1.36
